Ref: ChEMBL document CHEMBL1201862

- Test system: RPMI-8226
- Assay details: NCI tumour cell line growth inhibition, 48 h
Structures can show the parent of a compound that is named as a salt. The source made the active and inactive calls. Rule as the data show it: active = GI50 up to about 1.1 µM and inactive = higher.
Assay readout: GI50

[ask] // query GI50 value for entry COc1cc(=O)n2c3ccccc3n(C)c2c1C#N
[reply] > 100 µM (inactive)

[ask] Please look up its GI50: CCCCn1c(C)c(C(=O)OCC)c2cc(OCc3ccc(C(=O)Nn4c(C)ccc4C)cc3)c(Br)cc21
[reply] > 100 µM (inactive)

[ask] Sample O=S1(=O)c2ccccc2Oc2ccc(C(/C=N/O)=N/O)cc21 — what was its GI50?
[reply] 19.1 µM (inactive)

[ask] GI50 lookup needed for COc1cc2cc(C(=O)N3CC(CCl)c4ccc([N+](=O)[O-])cc43)[nH]c2c(OC)c1OC (configuration not stated) , thanks.
[reply] > 100 µM (inactive)

[ask] For Cc1cc(S(=O)(=O)Nc2nc3ccccc3[nH]2)c(S)cc1Cl , what is its reported GI50?
[reply] 34.6 µM (inactive)

[ask] Any idea what its GI50 is? The compound is Nc1nc(Cl)c2ncn(CCCC(c3ccccc3)P(=O)(O)O)c2n1 (configuration not stated)
[reply] > 100 µM (inactive)

[ask] Given the compound CC1=NCCc2c1[nH]c1cc(O)ccc21 [HARMALOL HYDROCHLORIDE] , what is its reported GI50?
[reply] > 100 µM (inactive)
